test system: U2OS; test: Multiplex assay against U2OS; assay type: toxicity, cell-based; settings: human, 48 h, 1 µM, compound concentration 1 uM, replicate 1
# Population Membrane Permeable-Phenotype (%) per entry
observation_type: Population Membrane Permeable-Phenotype (%)

- molecule: "CN1C(=O)[C@@H](NC(=O)c2cc3ccccc3[nH]2)N=C(c2ccccc2)c2ccccc21 [DEVAZEPIDE]"
  result: "4%"
- molecule: "CC(Cc1ccc(O)c(O)c1)C(C)Cc1ccc(O)c(O)c1 (stereo not drawn) [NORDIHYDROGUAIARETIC ACID]"
  result: "2%"
- molecule: "CS(=O)(=O)N1CCCC(NC(=O)[C@H](CCC2CCCCC2)NC(=O)c2ccc(CNC(=O)c3cnc4ccccn34)cc2)C1 (stereo partly drawn) [SR-302]"
  result: "2%"
- molecule: "CC(C)c1cc(Nc2nc(N3CCC[C@H](N)C3)ncc2C(N)=O)cc(C(C)C)n1"
  result: "26%"
- molecule: "N#CCNC(=O)c1ccc(-c2ccnc(Nc3ccc(N4CCOCC4)cc3)n2)cc1 [MOMELOTINIB]"
  result: "2%"
- molecule: "Oc1cccc(-c2nc(N3CCOCC3)c3oc4ncccc4c3n2)c1 [PI-103]"
  result: "7%"
- molecule: "CC(/C=C1\\SC(=S)N(CCCC(=O)Nc2ccc(C(=O)O)c(O)c2)C1=O)=C\\c1ccccc1"
  result: "1%"
- molecule: "Cc1ccc(S(=O)(=O)NC2c3ccccc3Oc3ccccc32)cc1"
  result: "0%"
- molecule: "CCCCN(CC)c1nc(C)nc2c1c(C)cn2-c1c(C)cc(C)cc1C.Cl"
  result: "0%"
- molecule: "C=CC(=O)Nc1cc(-n2c(=O)ccc3cnc4ccc(-c5ccc(NS(C)(=O)=O)cc5)cc4c32)ccc1C"
  result: "1%"
- molecule: "CC(C)[C@H](CO)Nc1nc(Nc2cccc(Cl)c2)c2ncn(C(C)C)c2n1 [PURVALANOLA]"
  result: "4%"
- molecule: "Cl.NC[C@@H]1O[C@H](C23CC4CC(CC(C4)C2)C3)Cc2c1ccc(O)c2O"
  result: "0%"
- molecule: "CCCc1cc(C)[nH]c(=O)c1CNC(=O)c1cc(-c2ccc(N3CCN(C(C)C)CC3)nc2)cc2c1cnn2C(C)C"
  result: "18%"
- molecule: "N#Cc1cccc(C(=O)Nc2cc(-c3ccccc3)nn2-c2ccccc2)c1"
  result: "2%"
- molecule: "CCCCCNC(=N)N/N=C/c1c[nH]c2ccc(OC)cc12.O=C(O)/C=C\\C(=O)O [TEGASEROD MALEATE]"
  result: "2%"
- molecule: "Cc1c(P(=S)(c2ccccc2)c2ccccc2)n2ccccc2[n+]1C/C=C/c1ccccc1.[Br-]"
  result: "3%"
- molecule: "CN(c1cc(C(F)(F)F)nc(OCCC(=O)O)n1)c1cccc2c1CCC2"
  result: "4%"
- molecule: "C[C@@H](Oc1cc(-n2cnc3ccc(CN4CCN(C)CC4)cc32)sc1C(N)=O)c1ccccc1C(F)(F)F [GSK-461364]"
  result: "18%"

Reference source: ChEMBL document CHEMBL4689842
